Test: Example 4: dose response of FKBP constructs 160-255, Ec50, Ec90 and fold change (raw and normalized to mCherry)
Assay type: cell-based
Conditions: FKBP constructs 160-255; not normalized; read-out: EC90
experimental.readout: EC90
Your answer should be a number followed by the unit of measure.

Here are 2 molecules together with their reported answers.
FKBP-201: FKBP13 DRD-AcGFP construct of Table 10 (protein, Description of sequence: Construct Name: FKBP-201; Mutation(s): Q72R Q84E A117W V85R DRD H53L) HCPIKSRKGDVLLMHYTGKLEDGTEFDSSLPRNQPFVFSLGTGERIKGWDQGLLGMCEGEKRKLVIPSELGYGERGWPPKIPGGATLVFEVELLKIER    144 nM
FKBP-168: FKBP13 DRD-AcGFP construct of Table 10 (protein, Description of sequence: Construct Name: FKBP-168; Mutation(s): Q72R T82W Q84R A117W DRD M54A V85R) HCPIKSRKGDVLHAHYTGKLEDGTEFDSSLPRNQPFVFSLGWGRRIKGWDQGLLGMCEGEKRKLVIPSELGYGERGWPPKIPGGATLVFEVELLKIER    342 nM

Next:
Can you look up the measured EC90 of FKBP-250 (protein, Description of sequence: Construct Name: FKBP-250; Mutation(s): Q72R Q84E A117W DRD E130F) HCPIKSRKGDVLHMHYTGKLEDGTEFDSSLPRNQPFVFSLGTGEVIKGWDQGLLGMCEGEKRKLVIPSELGYGERGWPPKIPGGATLVFFVELLKIER for me?
101 nM
